Provenance of the data: PubChem BioAssay (Tox21)

Assay: qHTS RealTime-Glo MT Cell Viability Assay in HepG2 cells - 16 hour (AID 1224885); also: nearly all actives have a fitted effect of over 50% in size
Settings: RealTime-Glo luminescence; series mostly up to 76.8 µM
Excerpt: U.S. Tox21 Program National Center for Advancing Translational Sciences [NCATS] NIH Chemical Genomics Center [NCGC] U.S. Environmental Protection Agency [EPA] National Institutes of Environmental Health Sciences [NIEHS] National Toxicology Program [NTP] U.S. Food and Drug Administration [FDA] Tox21 Assay Overview: Measure of cell viability is critical in the cell-base assay. Analysis of cell viability is necessary for the characterization of cell responses to cytotoxic drugs and environmental stress. […]
Results filed as inconclusive are left out. Calls of active or inactive are those of the source. Calls follow the shape of the dose curve; as a rule, active = well fitted cell-killing curve with a large enough effect in the repeat runs; inconclusive = weak or mixed curves; inactive = flat fitted curve, though single readings scatter.
MEASURED_ENDPOINT: outcome

[
  {
    "TEST_SMILES": "Nc1cc([N+](=O)[O-])ccc1C(=O)O",
    "ENDPOINT_VALUE": "inactive"
  },
  {
    "TEST_SMILES": "Cc1ccc(S(=O)(=O)NCl)cc1",
    "ENDPOINT_VALUE": "inactive"
  },
  {
    "TEST_SMILES": "Cc1cccc(Nc2ccccc2C(=O)O)c1C",
    "ENDPOINT_VALUE": "inactive"
  },
  {
    "TEST_SMILES": "NCCS(=O)(=O)O",
    "ENDPOINT_VALUE": "inactive"
  },
  {
    "TEST_SMILES": "Cc1ccc(C(C)(C)C)c(O)c1",
    "ENDPOINT_VALUE": "inactive"
  },
  {
    "TEST_SMILES": "Cc1ccc2c(c1)C(=O)OC2=O",
    "ENDPOINT_VALUE": "inactive"
  },
  {
    "TEST_SMILES": "NC[C@H](O)c1ccc(O)c(O)c1",
    "ENDPOINT_VALUE": "inactive"
  },
  {
    "TEST_SMILES": "CCCCCCOCCOCCO",
    "ENDPOINT_VALUE": "inactive"
  }
]

----------
assay: qHTS assay to identify small molecule antagonists of the androgen receptor (AR) signaling pathway using the MDA cell line - cell viability counter screen (AID 743041; also: nearly all actives have a fitted effect of over 45% in size); conditions: MDA-kb2 viability, CellTiter-Fluor, 16 h, cells co-treated with R1881 androgen agonist; series mostly up to 70.3 µM
Records with an inconclusive call do not appear. Activity calls are given as the source filed them. The call rests on the fitted dose curve; in most records, active means well fitted cell-killing curve with a large enough effect in the repeat runs; inconclusive means weak or mixed curves, or effect the other way; inactive means flat fitted curve, though single readings scatter.
Labels: active, inactive

[
  {
    "COMPOUND": "CCCN1C=CN(C)C1",
    "CATEGORY_LABEL": "inactive"
  },
  {
    "COMPOUND": "OCCNCCO",
    "CATEGORY_LABEL": "inactive"
  },
  {
    "COMPOUND": "NCCS(=O)(=O)O",
    "CATEGORY_LABEL": "inactive"
  },
  {
    "COMPOUND": "CCCCCC1C(=O)CCC1CC(=O)OC (configuration not stated)",
    "CATEGORY_LABEL": "inactive"
  },
  {
    "COMPOUND": "CC(=O)O[C@]1(C(C)=O)CC[C@H]2[C@@H]3C=C(C)C4=CC(=O)CC[C@]4(C)[C@H]3CC[C@@]21C",
    "CATEGORY_LABEL": "inactive"
  },
  {
    "COMPOUND": "O=Cc1ccccc1C=O",
    "CATEGORY_LABEL": "active"
  },
  {
    "COMPOUND": "CC1(C)O[C@@H]2C[C@H]3[C@@H]4C[C@H](F)C5=CC(=O)C=C[C@]5(C)[C@@]4(F)[C@@H](O)C[C@]3(C)[C@]2(C(=O)CO)O1",
    "CATEGORY_LABEL": "inactive"
  },
  {
    "COMPOUND": "NC[C@H](O)c1ccc(O)c(O)c1",
    "CATEGORY_LABEL": "inactive"
  },
  {
    "COMPOUND": "C[C@]12C=CC(=O)C=C1CC[C@H]1[C@@H]3C[C@@H](O)[C@](O)(C(=O)CO)[C@@]3(C)C[C@H](O)[C@@]12F",
    "CATEGORY_LABEL": "inactive"
  },
  {
    "COMPOUND": "CCCCCCCC/C=C\\CCCCCCCC(=O)O",
    "CATEGORY_LABEL": "inactive"
  },
  {
    "COMPOUND": "CN(C)/N=N/c1nc[nH]c1C(N)=O",
    "CATEGORY_LABEL": "inactive"
  },
  {
    "COMPOUND": "Nc1ccc2c(c1)C(=O)c1ccccc1C2=O",
    "CATEGORY_LABEL": "inactive"
  },
  {
    "COMPOUND": "C=C[Si](OCCOC)(OCCOC)OCCOC",
    "CATEGORY_LABEL": "inactive"
  },
  {
    "COMPOUND": "COc1cc([C@H]2Oc3cc([C@H]4Oc5cc(O)cc(O)c5C(=O)[C@@H]4O)ccc3O[C@@H]2CO)ccc1O",
    "CATEGORY_LABEL": "inactive"
  },
  {
    "COMPOUND": "CCCCCCOCCOCCO",
    "CATEGORY_LABEL": "inactive"
  },
  {
    "COMPOUND": "c1ccc2ncccc2c1",
    "CATEGORY_LABEL": "inactive"
  },
  {
    "COMPOUND": "CC1=CC(C)(C)Nc2ccccc21",
    "CATEGORY_LABEL": "inactive"
  },
  {
    "COMPOUND": "CC(=O)[C@@]1(O)CC[C@H]2[C@@H]3C[C@H](C)C4=CC(=O)C=C[C@]4(C)[C@@]3(F)[C@@H](O)C[C@@]21C",
    "CATEGORY_LABEL": "inactive"
  },
  {
    "COMPOUND": "CCCCCCCCCCC(CO)CCCCCCCC (configuration not stated)",
    "CATEGORY_LABEL": "inactive"
  },
  {
    "COMPOUND": "COC(=O)c1ccc(C)cc1",
    "CATEGORY_LABEL": "inactive"
  },
  {
    "COMPOUND": "FC(F)(F)C(Cl)Br (configuration not stated)",
    "CATEGORY_LABEL": "inactive"
  },
  {
    "COMPOUND": "O=C(CCCN1CCC(O)(c2ccc(Cl)cc2)CC1)c1ccc(F)cc1",
    "CATEGORY_LABEL": "inactive"
  },
  {
    "COMPOUND": "C=CC(C)(O)CCC=C(C)C (configuration not stated)",
    "CATEGORY_LABEL": "inactive"
  },
  {
    "COMPOUND": "COc1ccc(C(=O)c2ccccc2O)c(O)c1",
    "CATEGORY_LABEL": "inactive"
  },
  {
    "COMPOUND": "Cc1ccc(S(=O)(=O)O)cc1C",
    "CATEGORY_LABEL": "inactive"
  },
  {
    "COMPOUND": "CC(C)[C@@H]1CC[C@@H](C)CC1=O",
    "CATEGORY_LABEL": "inactive"
  },
  {
    "COMPOUND": "CN(C)CCCN1c2ccccc2Sc2ccc(Cl)cc21",
    "CATEGORY_LABEL": "active"
  }
]

----------
tested on: thyroid hormone receptor (rat, GH3 cells); assay: qHTS assay to identify small molecule agonists of the thyroid receptor (TR) signaling pathway (AID 743066); conditions: GH3.TRE-Luc cells, TR agonist luciferase, 24 h; series mostly up to 83.9 µM
Inconclusive results are not listed. Activity calls are given as the source filed them. The call rests on the fitted dose curve.
MEASURED_ENDPOINT: outcome

[
  {
    "MOLECULE": "CC(C)[N+](C)(CCOC(=O)C1c2ccccc2Oc2ccccc21)C(C)C",
    "ENDPOINT_VALUE": "inactive"
  },
  {
    "MOLECULE": "Cc1ccc(N)c([N+](=O)[O-])c1",
    "ENDPOINT_VALUE": "inactive"
  },
  {
    "MOLECULE": "O=[Se](O)O",
    "ENDPOINT_VALUE": "inactive"
  },
  {
    "MOLECULE": "CCc1cccc2c3c([nH]c12)C(CC)(CC(=O)O)OCC3 (centres undefined)",
    "ENDPOINT_VALUE": "inactive"
  },
  {
    "MOLECULE": "CCC(Cc1c(I)cc(I)c(N)c1I)C(=O)O (centres undefined)",
    "ENDPOINT_VALUE": "inactive"
  },
  {
    "MOLECULE": "C[C@]12CC[C@@H]3c4ccc(O)cc4CC[C@H]3[C@@H]1CC[C@H]2O",
    "ENDPOINT_VALUE": "inactive"
  },
  {
    "MOLECULE": "IC(I)I",
    "ENDPOINT_VALUE": "inactive"
  },
  {
    "MOLECULE": "CCCCCCOCCOCCO",
    "ENDPOINT_VALUE": "inactive"
  },
  {
    "MOLECULE": "ClC/C=C/CCl",
    "ENDPOINT_VALUE": "inactive"
  }
]
